- assay: Cytotoxicity against human HuH7 cells assessed as cellular GAPDH level after 48 hrs by quantitative RT-PCR
- Format: cell-based, Huh-7
- experimental-context: read-out: GI50
Reported CC50 at 48 h by item:
State just the number; it will be interpreted in µM.

chemical-smiles	CC50 at 48 h [µM]
CN1CCN(c2cc3c(cc2F)c(=O)c(-c2noc(Cc4ccc(F)cc4)n2)cn3Cc2ccc(Cl)cc2)CC1	6.4
CN1CCN(c2cc3c(cc2F)c(=O)c(-c2noc(Cc4ccc(F)cc4F)n2)cn3Cc2ccc(Cl)cc2)CC1	4.7
CN1CCN(c2cc3c(cc2F)c(=O)c(-c2nnc(Cc4ccc(F)cc4)o2)cn3Cc2ccc(C(F)(F)F)cc2F)CC1	5.7
CN1CCN(c2cc3c(cc2F)c(=O)c(-c2noc(Cc4ccccc4)n2)cn3Cc2ccc(C(F)(F)F)cc2)CC1	15
CN1CCN(c2cc3c(cc2F)c(=O)c(-c2nnc(Cc4ccccc4)o2)cn3Cc2ccc(C(F)(F)F)cc2F)CC1	4.6
CN1CCN(c2cc3c(cc2F)c(=O)c(-c2noc(Cc4ccc(F)cc4)n2)cn3Cc2ccc(C(F)(F)F)cc2F)CC1	6
CN1CCN(c2cc3c(cc2F)c(=O)c(-c2noc(Cc4ccccc4)n2)cn3Cc2ccc(C(F)(F)F)cc2F)CC1	7
CN1CCN(c2cc3c(cc2F)c(=O)c(-c2noc(Cc4ccccc4)n2)cn3Cc2ccc(Cl)cc2)CC1	7.3

Next compound, CC50 at 48 h to be filled in.
get_value(item= CN1CCN(c2cc3c(cc2F)c(=O)c(-c2nnc(Cc4ccccc4)o2)cn3Cc2ccc(Cl)cc2)CC1 , readout=CC50 at 48 h) returns 9.8
